TEST SYSTEM: SIRT1 (Homo sapiens)
Sequence (Q96EB6 1-747): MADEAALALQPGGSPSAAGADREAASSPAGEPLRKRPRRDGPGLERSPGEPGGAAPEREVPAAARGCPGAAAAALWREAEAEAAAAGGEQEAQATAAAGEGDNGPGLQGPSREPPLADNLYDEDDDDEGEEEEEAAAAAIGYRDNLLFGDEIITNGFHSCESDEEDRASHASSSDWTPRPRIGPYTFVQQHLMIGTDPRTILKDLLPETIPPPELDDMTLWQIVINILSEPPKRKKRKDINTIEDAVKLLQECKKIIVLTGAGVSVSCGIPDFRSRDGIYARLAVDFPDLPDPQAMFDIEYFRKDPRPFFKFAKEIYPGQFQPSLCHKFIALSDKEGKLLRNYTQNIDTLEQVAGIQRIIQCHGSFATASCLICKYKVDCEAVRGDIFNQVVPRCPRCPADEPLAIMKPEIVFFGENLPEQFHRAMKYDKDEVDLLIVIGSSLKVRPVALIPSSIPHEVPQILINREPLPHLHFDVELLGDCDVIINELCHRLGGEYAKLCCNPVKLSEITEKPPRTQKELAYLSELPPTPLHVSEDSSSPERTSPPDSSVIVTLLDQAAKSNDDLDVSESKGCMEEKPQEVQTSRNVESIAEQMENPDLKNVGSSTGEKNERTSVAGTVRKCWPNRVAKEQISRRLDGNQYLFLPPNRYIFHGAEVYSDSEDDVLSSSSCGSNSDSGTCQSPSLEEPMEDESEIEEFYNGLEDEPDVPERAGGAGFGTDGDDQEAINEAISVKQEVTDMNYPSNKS
PROTOCOL DETAILS: Trp mass spectrometry assay of SIRT1 activation (Ac-R-H-K-K(Ac)-W-NH2 peptide)
Assay type: biochemical
TEST SETTINGS: 25 min, Trp peptide 0.5 μM, 120 μM βNAD+, 10 nM SIRT1, 25 min at 25° C.; relative to control (100%); read-out: TRP MAX RESP (percent maximum fold activation)
OBSERVABLE: Emax

Task item: Looking for the measured Emax of Cc1nc(NC(=O)N2c3nc(C(=O)NC4CC4)ccc3N3CC[C@H]2C3)co1 , can you help?
Reply: > 150%

Task item: Looking for the measured Emax of C[C@@H](NC(=O)c1ccc2c(n1)N(C(=O)Nc1cc(C(=O)N[C@H]3CCOC3)ccn1)[C@H]1CCN2C1)C(F)(F)F , can you help?
Reply: < 150%

Task item: Looking for the measured Emax of C[C@@H](NC(=O)c1ccc2c(n1)N(C(=O)Nc1cc(-c3cnco3)ccn1)[C@H]1CCN2C1)C(F)(F)F , can you help?
Reply: > 150%

Task item: Looking for the measured Emax of C[C@@H](NC(=O)c1ccc2c(n1)N(C(=O)NCC(=O)N(C)C)[C@H]1CCN2C1)C(F)(F)F , can you help?
Reply: > 150%

Task item: Looking for the measured Emax of C[C@@H](NC(=O)c1ccc2c(n1)N(C(=O)Cc1ccccn1)[C@H]1CCN2C1)C(F)(F)F , can you help?
Reply: < 150%

Task item: Looking for the measured Emax of Cc1ccc2c(NC(=O)N3c4nc(C(=O)NCC(F)(F)F)ccc4N4CC[C@H]3C4)n[nH]c2n1 , can you help?
Reply: > 150%

Task item: Looking for the measured Emax of Cc1ccc2c(NC(=O)N3c4nc(C(=O)NCC(N)C(F)(F)F)ccc4N4CC[C@H]3C4)n[nH]c2n1 (single isomer, unassigned) , can you help?
Reply: > 150%

Task item: Looking for the measured Emax of O=C(NC1CCC1)c1ccc2c(n1)N(C(=O)Nc1ccccn1)[C@H]1CCN2C1 , can you help?
Reply: > 150%

Task item: Looking for the measured Emax of Cc1ccc2c(NC(=O)N3c4nc(C(=O)N[C@H](C)C(F)(F)F)ccc4N4CC[C@H]3C4)n[nH]c2n1 , can you help?
Reply: > 150%

Task item: Looking for the measured Emax of Cc1cc(C(=O)N[C@H](C)C(F)(F)F)nc2c1N1CC[C@@H](C1)N2C(=O)Nc1ccccn1 , can you help?
Reply: > 150%

Task item: Looking for the measured Emax of C[C@@H](NC(=O)c1ccc2c(n1)N(C(=O)Nc1ccc(OC[C@H](O)CO)cn1)[C@H]1CCN2C1)C(F)(F)F , can you help?
Reply: > 150%

Task item: Looking for the measured Emax of Cc1nc(NC(=O)N2c3nc(C(=O)NC4CC4)ccc3N3CC[C@H]2C3)ccc1F , can you help?
Reply: > 150%

Task item: Looking for the measured Emax of C[C@@H](NC(=O)c1nc2c(cc1F)N1CC[C@@H](C1)N2C(=O)Nc1cc(OC[C@H](O)CO)ccn1)C(F)(F)F , can you help?
Reply: > 150%

Task item: Looking for the measured Emax of C[C@H](O)CNC(=O)c1ccc2c(n1)N(C(=O)Nc1ccccn1)[C@H]1CCN2C1 , can you help?
Reply: > 150%

====

TEST SYSTEM: SIRT1 (Homo sapiens)
Sequence (Q96EB6 1-747): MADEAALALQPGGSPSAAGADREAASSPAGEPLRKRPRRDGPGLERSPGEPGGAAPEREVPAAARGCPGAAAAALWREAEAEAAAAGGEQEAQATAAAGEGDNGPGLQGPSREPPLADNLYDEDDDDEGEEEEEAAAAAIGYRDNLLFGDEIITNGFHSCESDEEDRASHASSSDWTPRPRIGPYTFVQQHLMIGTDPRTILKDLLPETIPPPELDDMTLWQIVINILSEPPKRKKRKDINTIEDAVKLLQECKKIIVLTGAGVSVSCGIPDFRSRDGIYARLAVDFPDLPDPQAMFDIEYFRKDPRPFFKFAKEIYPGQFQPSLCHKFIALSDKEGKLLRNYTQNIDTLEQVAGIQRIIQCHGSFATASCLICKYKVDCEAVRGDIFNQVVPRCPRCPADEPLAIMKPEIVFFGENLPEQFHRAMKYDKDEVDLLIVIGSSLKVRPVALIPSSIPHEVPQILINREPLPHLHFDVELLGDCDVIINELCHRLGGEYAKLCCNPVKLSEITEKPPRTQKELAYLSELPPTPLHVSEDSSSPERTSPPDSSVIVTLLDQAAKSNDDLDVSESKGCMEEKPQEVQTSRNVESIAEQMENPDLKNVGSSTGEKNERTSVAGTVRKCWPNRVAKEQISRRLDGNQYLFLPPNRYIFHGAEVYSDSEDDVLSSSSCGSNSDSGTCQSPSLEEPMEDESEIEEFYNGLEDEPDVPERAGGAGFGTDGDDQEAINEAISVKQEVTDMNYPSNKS
PROTOCOL DETAILS: Trp mass spectrometry assay of SIRT1 activation (Ac-R-H-K-K(Ac)-W-NH2 peptide)
Format: biochemical
TEST SETTINGS: 25 min, Trp peptide 0.5 μM, 120 μM βNAD+, 10 nM SIRT1, 25 min at 25° C.; relative to control (100%); read-out: TRP MAX RESP (percent maximum fold activation)
OBSERVABLE: Emax

Task item: Tell me reported Emax for CC(C)(C)CNC(=O)c1ccc2c(n1)N(C(=O)Nc1ccccn1)[C@H]1CCN2C1 , tested with SIRT1 (Homo sapiens).
Reply: > 150%

Task item: Tell me reported Emax for CCCNC(=O)c1ccc2c(n1)N(C(=O)Nc1ccccn1)[C@H]1CCN2C1 , tested with SIRT1 (Homo sapiens).
Reply: > 150%

Task item: Tell me reported Emax for O=C(NCCF)c1ccc2c(n1)N(C(=O)Nc1ccccn1)[C@H]1CCN2C1 , tested with SIRT1 (Homo sapiens).
Reply: > 150%

Task item: Tell me reported Emax for Cc1cc(C(=O)N[C@H](C)C(F)(F)F)nc2c1N1CC[C@@H](C1)N2C(=O)Nc1cc(OC[C@H](O)CO)ccn1 , tested with SIRT1 (Homo sapiens).
Reply: < 150%

====

TEST SYSTEM: SIRT1 (Homo sapiens, UniProt Q96EB6)
PROTOCOL DETAILS: Trp mass spectrometry assay of SIRT1 activation (Ac-R-H-K-K(Ac)-W-NH2 peptide)
Assay type: biochemical
TEST SETTINGS: 25 min, Trp peptide 0.5 μM, 120 μM βNAD+, 10 nM SIRT1, 25 min at 25° C.; relative to control (100%); read-out: TRP MAX RESP (percent maximum fold activation)
For each entry below, report its Emax value.

Task item: Looking for the measured Emax of Cc1ncc(-c2cc(NC(=O)N3c4nc(C(=O)N[C@H](C)C(F)(F)F)ccc4N4CC[C@H]3C4)ncn2)o1 [Example 318] , can you help?
Reply: < 150%

Task item: Looking for the measured Emax of CNC(=O)c1ccnc(NC(=O)N2c3nc(C(=O)N[C@H](C)C(F)(F)F)ccc3N3CC[C@H]2C3)c1 [Example 151] , can you help?
Reply: > 150%

Task item: Looking for the measured Emax of O=C(NC[C@@H](O)C(F)(F)F)c1ccc2c(n1)N(C(=O)Nc1ccc(F)cn1)[C@H]1CCN2C1 [Example 71] , can you help?
Reply: > 150%

Task item: Looking for the measured Emax of O=C(NC[C@@H](O)C(F)(F)F)c1ccc2c(n1)N(C(=O)Nc1ccccn1)[C@H]1CCN2C1 [Example 34] , can you help?
Reply: > 150%
